Each recorded value in this set is attributed to PubChem BioAssay (NCI).

# reported TGI; entries follow
Test system: HOP-62 NSCLC
Experiment: NCI tumour cell line growth inhibition, 48 h
METRIC: TGI (µM)

{"COMPOUND": "ClCCN(CCCl)c1ccc(OCc2ccccc2)cc1", "CENSORING_QUALIFIER": "=", "NUMERIC_VALUE": 30.4}
{"COMPOUND": "CC[C@H](C)[C@H](NC(=O)[C@H](Cc1ccc(O)cc1)NCC(F)(F)F)C(=O)OC(C)(C)C", "CENSORING_QUALIFIER": "=", "NUMERIC_VALUE": 20.5}
{"COMPOUND": "COc1ccc(-c2c(C(C)=O)c(C)n(C3OC(COC(C)=O)C(OC(C)=O)C(OC(C)=O)C3OC(C)=O)c(=S)c2C#N)cc1 (centres undefined)", "CENSORING_QUALIFIER": ">", "NUMERIC_VALUE": 100}
{"COMPOUND": "CC[n+]1c(/C=C/c2ccc(N3CCCC3)cc2)cccc1/C=C/c1ccc(N2CCCC2)cc1", "CENSORING_QUALIFIER": "=", "NUMERIC_VALUE": 1.46}
{"COMPOUND": "CC1(C)CC(=O)c2c(nc3c(ccc4ccccc43)c2-c2ccc(NC(=O)CCCCCCCCC(=O)Nc3ccc(-c4c5c(nc6c4ccc4ccccc46)CC(C)(C)CC5=O)cc3)cc2)C1", "CENSORING_QUALIFIER": ">", "NUMERIC_VALUE": 100}
{"COMPOUND": "COc1ccc2c(c1)C(=O)/C(=C/c1ccccc1)C2", "CENSORING_QUALIFIER": ">", "NUMERIC_VALUE": 100}
{"COMPOUND": "O=c1[nH]ncc2[nH]c(-c3ccccc3)cc12", "CENSORING_QUALIFIER": ">", "NUMERIC_VALUE": 100}
{"COMPOUND": "CCCCN(CCCC)C(=O)C(=O)C(C(=O)C(=O)OC)c1nc2ccccc2o1 (centres undefined)", "CENSORING_QUALIFIER": ">", "NUMERIC_VALUE": 100}
{"COMPOUND": "Fc1ccc(-c2nn3c(COc4ccccc4Cl)nnc3s2)cc1Oc1ccccc1", "CENSORING_QUALIFIER": "=", "NUMERIC_VALUE": 40.1}

====

Tested on: LOX IMVI melanoma
Experiment: NCI tumour cell line growth inhibition, 48 h
METRIC: TGI

{"COMPOUND": "O=C(Cc1c(C(=O)Nc2ccccc2)sc(C(=O)Nc2ccccc2)c1CC(=O)Nc1ccccc1)Nc1ccccc1", "RESULT": "> 100 µM"}
{"COMPOUND": "CC(=O)OC12c3ccccc3C(c3ccccc31)C1C(=O)N(c3ccccc3O)C(=O)C12 (stereo unspecified)", "RESULT": "> 100 µM"}
{"COMPOUND": "CC1(C)CCCC2(C)[C@@H]1CC[C@]13C[C@](C)(CC[C@@H]21)[C@@H]3CO (stereo partly specified)", "RESULT": "> 100 µM"}
{"COMPOUND": "CSc1nc(SC)c2cnn(-c3ccnc4cc(Cl)ccc34)c2n1", "RESULT": "> 100 µM"}
{"COMPOUND": "CC1(C)OP(=O)(c2ccccc2)C=C1Br (stereo unspecified)", "RESULT": "> 100 µM"}
{"COMPOUND": "COc1c(O)cc2c(c1CC=C(C)C)OC(=O)c1c(cc(O)c(CC=C(C)C)c1O)O2", "RESULT": "7.68 µM"}
{"COMPOUND": "Cc1cc2c(=O)cc(-c3ccc(Cl)c(Cl)c3)oc2c(C(=O)O)c1C", "RESULT": "> 100 µM"}
{"COMPOUND": "CCCC(c1cc(C(C)(C)C)c(O)cc1C)c1cc(C(C)(C)C)c(O)cc1C", "RESULT": "3.43 µM"}
{"COMPOUND": "OCC(O)COc1ccc(F)cc1 (stereo unspecified)", "RESULT": "> 100 µM"}
{"COMPOUND": "CC[C@@]1(O)C(=O)OCc2c1cc1n(c2=O)Cc2cc3c(OC)cccc3nc2-1", "RESULT": "1.14 µM"}
{"COMPOUND": "CC1OC(n2ccc3ccc([N+](=O)[O-])cc32)C(O)C(O)C1O (stereo unspecified)", "RESULT": "> 100 µM"}
{"COMPOUND": "CCCCN(CCCC)C(=O)C(=O)C(C(=O)C(=O)OC)c1nc2ccccc2o1 (stereo unspecified)", "RESULT": "> 100 µM"}
{"COMPOUND": "NCCSC1(O)C(=O)c2ccccc2-c2ccccc21 (stereo unspecified)", "RESULT": "0.717 µM"}
{"COMPOUND": "COc1cc(Br)cc2c1O[C@H]1C(=O)CC3CC21CCN3C (stereo partly specified)", "RESULT": "> 100 µM"}
{"COMPOUND": "CCC1CN2CCc3cc(OC)c(OC)cc3C2CC1CC1c2cc(OC)c(OC)cc2CCN1C(=O)C(Cc1c[nH]c2ccccc12)NC(=O)OC(C)(C)C (stereo unspecified)", "RESULT": "3.58 µM"}
{"COMPOUND": "Cc1cccc2c1NC(=O)[C@@H](NC(=O)[C@H](CCC(F)(F)F)[C@H](CCC(F)(F)F)C(N)=O)N=C2c1cccc(F)c1", "RESULT": "> 100 µM"}

====

Reported TGI values are given for each entry in this list.
System: SF-295 CNS
Assay: NCI tumour cell line growth inhibition, 48 h
METRIC: TGI

{"MOLECULE": "CNC(=O)Nn1c(SC)nc2ccccc21", "RESULT": "> 100 µM"}
{"MOLECULE": "COc1cc(Br)cc2c1O[C@H]1C(=O)CC3CC21CCN3C (some centres undefined)", "RESULT": "> 100 µM"}
{"MOLECULE": "CC[C@H](C)[C@H](NC(=O)[C@H](Cc1ccc(O)cc1)NCC(F)(F)F)C(=O)OC(C)(C)C", "RESULT": "15.2 µM"}
{"MOLECULE": "NCCSC1(O)C(=O)c2ccccc2-c2ccccc21 (centres undefined)", "RESULT": "2.28 µM"}
{"MOLECULE": "Fc1ccc(-c2nn3c(COc4ccccc4Cl)nnc3s2)cc1Oc1ccccc1", "RESULT": "50.9 µM"}
{"MOLECULE": "Nc1ccc(-c2nnc(-c3c(Cl)c(Cl)c(Cl)c(Cl)c3-c3nc4ccc(C(=O)c5ccccc5)cc4[nH]3)o2)cc1", "RESULT": "58.5 µM"}
{"MOLECULE": "CNc1cccc(-c2cc(=O)c3cc4c(cc3[nH]2)OCO4)c1", "RESULT": "> 22.9 µM"}
{"MOLECULE": "Cc1ccc(C)c(N2C(=O)C(=O)C(c3nc4ccccc4s3)C(=O)C2=O)c1", "RESULT": "> 100 µM"}
{"MOLECULE": "N#Cc1nc(N)c(C#N)[nH]1", "RESULT": "> 100 µM"}
{"MOLECULE": "COc1ccc(-c2c(C(C)=O)c(C)n(C3OC(COC(C)=O)C(OC(C)=O)C(OC(C)=O)C3OC(C)=O)c(=S)c2C#N)cc1 (centres undefined)", "RESULT": "> 100 µM"}
{"MOLECULE": "O=C(O)[C@@]1(Cc2ccc(O)cc2)C[C@@H]2Cc3ccccc3N2N1", "RESULT": "> 100 µM"}
{"MOLECULE": "Cc1cc(C)c2c(=O)cc(-c3ccccc3)[nH]c2c1", "RESULT": "17.9 µM"}
{"MOLECULE": "Cc1ccccc1C(C#N)/C(=N/NC(N)=S)C(=O)Nc1c(C)cccc1C (centres undefined)", "RESULT": "> 100 µM"}
{"MOLECULE": "Cc1cc2c(cc1C)[n+](=O)c(C(=O)CC(=O)C(=O)Nc1ccccc1C)c(C)n2[O-]", "RESULT": "> 100 µM"}
{"MOLECULE": "Cc1nn(C(=O)c2ccc(Cl)cc2)c2c1C(c1ccccc1)SC(N)=N2 (centres undefined)", "RESULT": "> 10 µM"}
{"MOLECULE": "O=C1NC(=S)NC1C(Cc1ccccc1)c1ccco1 (centres undefined)", "RESULT": "> 100 µM"}
{"MOLECULE": "Cc1ccc([I+]c2ccc(C)cc2)cc1", "RESULT": "8.74 µM"}
{"MOLECULE": "CCOC(=O)c1cc2c(OC)cc(OC)cc2oc1=O", "RESULT": "> 100 µM"}
{"MOLECULE": "CN1C(=O)CNS1(=O)=O", "RESULT": "> 100 µM"}
{"MOLECULE": "C/C(CC(O)(C(F)(F)Cl)C(F)(F)Cl)=N\\Nc1ccccc1", "RESULT": "> 100 µM"}
{"MOLECULE": "Cc1ccc(C2=NN=C3C(c4ccccc4)=Nc4ccccc4N3C2)cc1", "RESULT": "> 100 µM"}
{"MOLECULE": "CCOC(=O)c1csc(NC(=O)CCN2CCOCC2)n1", "RESULT": "> 100 µM"}
{"MOLECULE": "COc1ccc(/C=C2\\C(=O)Nc3ccccc32)cc1OC", "RESULT": "> 100 µM"}
{"MOLECULE": "S=c1sc2sc(=S)sc2s1", "RESULT": "72 µM"}
